# Tested on: EKVX NSCLC
# test_method_notes: NCI tumour cell line growth inhibition, 48 h
property_label: GI50

Cc1cc(N2CCOCC2)nc(NCc2cc(Nc3ccnc4cc(Cl)ccc34)ccc2F)n1 : 1.52 µM
CN(C)c1ccc2[nH]c3c(C(N)=O)cc(=O)c(=O)c=3oc2c1 : 3.36 µM
COc1ccc(-c2c(-c3ccc(C#N)c(F)c3)nc(N3CCC(N)CC3)n(C)c2=O)cc1F : 15.5 µM

Case `C[C@]12CCC(=O)C[C@@H]1CC[C@@H]1[C@@H]2CC[C@]2(C)[C@@H](OC(=O)N(CCCl)N=O)CC[C@@H]12` , EKVX NSCLC, GI50 recorded as 4.88 µM

Form field, GI50 with EKVX NSCLC, item CCOCCOCCOCCOCCOCCOCCOCCOCCOCCO (tested in a mixture with another compound) : 1.26 µM

Summary: `CC1=C[C@@H]2c3c(c(O)c(O)c4oc5cc(O)cc(O)c5c(=O)c34)[C@@H](c3cc(O)c(O)c4oc5cc(O)cc(O)c5c(=O)c34)[C@@H]2C(C)(C)C1` , EKVX NSCLC, GI50 = 5 µM

Query `Cc1cc(N(CCNc2ccnc3cc(Cl)ccc23)Cc2ccc3c(c2)OCO3)nc(N2CCCC2)n1` on EKVX NSCLC; GI50 returned: 2.74 µM

---

Measured TGI of individual entries
# Tested on: ACHN renal
# test_method_notes: NCI tumour cell line growth inhibition, 48 h

The following compounds have reported results that may help.
CCCCCCCCCCCC[N+]12CC[N+](C)(CC1)CC2 : > 100 µM
CC(=O)CC(=O)Nc1ccccc1C(F)(F)F : > 100 µM
CC#CCCCC1(C)CCNC1=S (stereo not given) : > 10 µM
COC(=O)C(CCC1(C)OCCO1)=[N+]=[N-] : > 100 µM
COc1ccc2c(c1)nnc1c3cccnc3[nH]c21 : > 100 µM
O=C1NC(=NCCc2ccc(Br)cc2)S/C1=C\c1ccc2ncccc2c1 : > 25 µM
NS(=O)(=O)c1ccc(N=Nc2c[nH]c(=O)c(O)c2)cc1 : > 100 µM
O=C1Cc2cc(CCN3CCNCC3)c(Cl)cc2N1 : > 100 µM
C(=C/c1nnnn1-c1ccccc1)/Nc1ccccc1 : > 100 µM
COc1cc2c[n+](C)c3c4cc(OC)c(OCc5ccccc5)cc4c(OCc4ccccc4)cc3c2cc1OC : > 100 µM

Please fill in: TGI reported for CCN(CC)c1c(C)nnn1C1OC(COC(C)=O)C(OC(C)=O)C(OC(C)=O)C1OC(C)=O (stereo not given) = > 100 µM

Entry under test: `Cc1ccc(Nc2nc(-c3ccc(-c4ccc([N+](=O)[O-])cc4)o3)cs2)cc1` . Its TGI was > 100 µM

TGI reported for this compound `COc1cc(/C=C/C(=N\NC(N)=S)c2sc(NNC(C)=O)nc2C)ccc1O` : > 100 µM

---

# Tested on: RPMI-8226 leukemia
# test_method_notes: NCI tumour cell line growth inhibition, 48 h; in the data active = GI50 below about 0.43 µM; inactive = the rest
Assign a class; possible classes are active, inactive

For orientation, consider the following solved cases.
S=C(SSC(=S)N1CCCCC1)N1CCCCC1 : inactive
COc1cnccc1Nc1nc(-c2nn(Cc3c(F)cc(OCCO)cc3F)c3ccccc23)ncc1OC : inactive
C[C@]12CCC(=O)C[C@@H]1CC[C@@H]1[C@@H]2CC[C@]2(C)[C@@H](OC(=O)N(CCCl)N=O)CC[C@@H]12 : inactive
O=C1Cc2cc(CCN3CCNCC3)c(Cl)cc2N1 : inactive
CNc1cc(-c2cccc(OC(F)(F)F)c2)nc2ccc(N3CCCC3)cc12 : inactive
Clc1ccc(-c2nc(NCc3ccco3)c3ccccc3n2)c(Cl)c1 : inactive
COC(=O)CC1=C(C)/C(=C/c2[nH]c(-c3ccc[nH]3)cc2OC)N=C1C : active
CCN1C(=O)N(CC)C2C1N=C(SC)N2/N=C/C=C/c1ccccc1OC (stereo unspecified) : active
O=C1/C(=C/c2ccc([N+](=O)[O-])o2)Oc2ccc(Cl)cc21 : inactive
CSc1ccc(C(=O)/C=C/c2ccc(Cl)cc2Cl)cc1 : inactive

Please find the next molecule below.
Dear all, I need the recorded test outcome for `O=C(C(=CN1CCN(C(=O)c2ccco2)C1=S)C(=O)c1ccccc1)c1ccccc1` , thank you.
inactive
